Source: patent US20110039921A1

- System: MCF-7/D: adriamycin-resistant subline of the human mammary adenocarcinoma cell strain MCF-7
- Assay summary: MTT cytotoxicity assay, MCF-7/D cells
- Type: cell-based
- Condition label: Table 2, read-out: IC50 (mol/L) MCF-7/D
Metric: IC50
Field: value (include unit after the number)

Ask | # IC50 lookup, item CC=C(C)C(=O)NC(c1ccccc1)C(O)C(=O)OC1CC2(O)C(OC(=O)c3cccc(N=[N+]=[N-])c3)C3C4(OC(C)=O)COC4CC(OC(=O)CC)C3(C)C(=O)C(O)C(=C1C)C2(C)C (stereo not shown) [Example 8]
Reply | 270 nM

----------
- Test system: A2780
- Assay summary: MTT cytotoxicity assay, A2780 cells
- Type: cell-based, human
- Condition label: Table 2, read-out: IC50 (mol/L) A2780
Metric: pIC50
Please express pIC50 as -log10 of the molar concentration.

Ask | # pIC50 lookup, item CC=C(C)C(=O)NC(c1ccccc1)C(O)C(=O)OC1CC2(O)C(OC(=O)c3cccc(N=[N+]=[N-])c3)C3C4(OC(C)=O)COC4CC(OC(=O)CC)C3(C)C(=O)C(O)C(=C1C)C2(C)C (stereo not shown)
Reply | 8.44
